Entry source: patent US20240024501A1

- target-desc: T1, PD-L1 (Eu-labeled) (UniProt Q9NZQ7 19-238, limits assumed, Eu label)
- T1 construct: also called Eu-labeled PD-L1
- experiment-summary: HTRF
PDL1 Binding (HTRF signal) values, listed per item
readout: PDL1 Binding (HTRF signal)

- PDL1-IFN-R01-B12 (scFv, expressed cell-free as Myc tag + scFv + V5 tag) scFv: QVQLVQSGAEVKKPGASVKVSCKASGNTFTDYYMHWVRQAPGQGLEWMGWMNPNSGNTGYAQKFQGRVTMTRDTSTSTVYMELSSLRSEDTAVYYCARSLFPTIFGVEVAFDIWGQGTLVTVSSASGGGGSGGGGSGGGGSHASDIQMTQSPSSLSASVGDRVTITCQASQDISNYLNWYQQKPGKAPKLLIYAASSLQSGVPSRFSGSGSGTDFTLTISSLQPEDFATYYCQQSYSTPPTFGQGTRLEIK: 2980
- PDL1-IFN-R01-A11 (scFv, expressed cell-free as Myc tag + scFv + V5 tag) scFv: QVQLVQSGAEVKKPGASVKVSCKASGGTFSSYYMHWVRQAPGQGLEWMGWMNPNSGNTGYAQKFQGRVTMTRDTSTSTVYMELSSLRSEDTAVYYCARSLFPTIFGVEVAFDIWGQGTLVTVSSASGGGGSGGGGSGGGGSHASDIQMTQSPSSLSASVGDRVTITCQASQDITNYLNWYQQKPGKAPKLLIYAASSLESGVPSRFSGSGSGTDFTLTISSLQPEDFATYYCQQSYSIPITFGQGTRLEIK: 2960
- PDL1-IFN-R01-A06 (scFv, expressed cell-free as Myc tag + scFv + V5 tag) scFv: QVQLVQSGAEVKKPGASVKVSCKASGGTFSSYAISWVRQAPGQGLEWVGWMDPKSGNTGYAQKFQGRVTMTRDTSTSTVYMELSSLRSEDTAVYYCARSLFPTIFGVEVAFDIWGQGTLVTVSSASGGGGSGGGGSGGGGSHASDIQMTQSPSSLSASVGDRVTITCQASQDINNYLNWYQQKPGKAPKLLIYKASSLEPGVPSRFSGSGSGTDFTLTISSLQPEDFATYYCQKSNDVPFTFGQGTKVEIK: 2780
- PDL1-IFN-R01-C08 (scFv, expressed cell-free as Myc tag + scFv + V5 tag) scFv: QVQLVQSGAEVKKPGASVKVSCKASGGTFSSYAISWVRQAPGQGLEWMGIIDPSVTYTRYAQKFQGRVTMTRDTSTSTVYMELSSLRSEDTAVYYCARSLFPTIFGVEVAFDIWGQGTLVTVSSASGGGGSGGGGSGGGGSHASDIQMTQSPSSLSASVGDRVTITCQASQDISNYLNWYQQKPGKAPKLLIYGASTLQSGVPSRFSGSGSGTDFTLTISSLQPEDFATYYCQQTYSTPITFGQGTKVEIK: 2750
- Anti-IFN control (SEQ ID NO: 30) (scFv, control scFv; also called Anti-IFNα control) scFv: EVQLVESGGGLVQPGGSLRLSCATSGYTFTEYIIHWVRQAPGKGLEWVASINPDYDITNYNQRFKGRFTISLDKSKRTAYLQMNSLRAEDTAVYYCASWISDFFDYWGQGTLVTVSSASGGGGSGGGGSGGGGSHASDIQMTQSPSSLSASVGDRVTITCRASQSVSTSSYSYMHWYQQKPGKAPKVLISYASNLESGVPSRFSGSGSGTDFTLTISSLQPEDFATYYCQHSWGIPRTFGQGTKVEIK: 416
- PDL1-IFN-R01-C11 (scFv, expressed cell-free as Myc tag + scFv + V5 tag) scFv: QVQLVQSGAEVKKPGASVKVSCKASGGTFSSYAISWVRQAPGQGLEWMGWMDANNGNTGYAQKFQGRVTMTRDTSTSTVYMELSSLRSEDTAVYYCARSLFPTIFGVEVAFDIWGQGTLVTVSSASGGGGSGGGGSGGGGSHASDIQMTQSPSSLSASVGDRVTITCRASQSVSSYLNWYQQKPGKAPKLLIYKASSLESGVPSRFSGSGSGTDFTLTISSLQPEDFATYYCQQSSSTPLSFGGGTKVEIK: 3040
- PDL1-IFN-R01-B09 (scFv, expressed cell-free as Myc tag + scFv + V5 tag) scFv: QVQLVQSGAEVKKPGASVKVSCKASGGTFTGYYMHWVRQAPGQGLEWMGWVNPNSGNTGYAQKFQGRVTMTRDTSTSTVYMELSSLRSEDTAVYYCARSLFPTIFGVEVAFDIWGQGTLVTVSSASGGGGSGGGGSGGGGSHASDIQMTQSPSSLSASVGDRVTITCQASQDISNYLNWYQQKPGKAPKLLIYAASSLQSGVPSRFSGSGSGTDFTLTISSLQPEDFATYYCQQSYSPPPTFGQGTKLEIK: 1380
